molecular target: human recombinant CD38 enzyme (Homo sapiens); construct: purchased R&D Systems H7006; experiment: Human recombinant enzyme assay (fluorimetric CD38 enzyme assay, ε-NAD substrate); format: biochemical; settings: recombinant CD38 100 ng/ml, ε-NAD 100 µM, pH = 6.0, 37°C, reaction time 30 min; read-out: IC50 (nM) ENAD
readout.name: IC50 (nM)

Past entries and their recorded results:
>  <smiles.text>
CC(C)(CO)CN1C(=O)N/C(=C\c2ccncc2)C1=O

>  <assay.system>
human recombinant CD38 enzyme (Homo sapiens)

>  <IC50 / nM>
42

$$$$
>  <smiles.text>
O=C1N/C(=C\c2ccncc2)C(=O)N1c1ccc(C(F)(F)F)cc1

>  <assay.system>
human recombinant CD38 enzyme (Homo sapiens)

>  <IC50 / nM>
43

$$$$

(P) O=C(c1ccc(N2C(=O)N/C(=C\c3ccncc3)C2=O)cc1)N1CCCC1
(Q) CN(C)c1ccc(N2C(=O)N/C(=C\c3ccncc3)C2=O)cc1
Enquiry: Select one. Lower IC50: P or Q Answer by stating the label of the chosen item.
Return: P

(I) CCCCCCN1C(=O)N/C(=C\c2ccncc2)C1=O
(II) CC(=O)c1ccc(N2C(=O)N/C(=C\c3ccncc3)C2=O)cc1
Enquiry: Compare I and II and name the one whose reported IC50 is smaller. Give the label under which the chosen entry appears.
Return: II
(II: 26 nM, I: 55 nM)

---

Target: human recombinant CD38 enzyme (Homo sapiens, UniProt P28907)
Construct: purchased R&D Systems H7006
Sequence (P28907 1-300): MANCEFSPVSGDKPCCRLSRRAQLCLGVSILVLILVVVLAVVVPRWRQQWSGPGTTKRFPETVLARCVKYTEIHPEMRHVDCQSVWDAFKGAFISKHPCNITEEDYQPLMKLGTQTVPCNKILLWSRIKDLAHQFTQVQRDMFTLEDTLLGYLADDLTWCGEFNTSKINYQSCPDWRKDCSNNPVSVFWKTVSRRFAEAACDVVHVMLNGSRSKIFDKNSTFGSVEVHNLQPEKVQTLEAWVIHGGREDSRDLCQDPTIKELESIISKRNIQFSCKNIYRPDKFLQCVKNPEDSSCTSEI
Assay: Human recombinant enzyme assay (fluorimetric CD38 enzyme assay, ε-NAD substrate)
Type: biochemical
Settings: recombinant CD38 100 ng/ml, ε-NAD 100 µM, pH = 6.0, 37°C, reaction time 30 min; read-out: IC50 (nM) ENAD
readout.name: IC50 (nM)

>  <compound>
O=C1N/C(=C\c2ccncc2)C(=O)N1CCNC(=O)C(F)(F)F

>  <IC50, nM>
240

$$$$
>  <compound>
CC(=O)c1cccc(N2C(=O)N/C(=C\c3ccncc3)C2=O)c1

>  <IC50, nM>
30

$$$$
>  <compound>
O=C(c1ccc(N2C(=O)N/C(=C\c3ccncc3)C2=O)cc1)N1CCOCC1

>  <IC50, nM>
51

$$$$
>  <compound>
O=C(NC1CCCC1)c1ccc(N2C(=O)N/C(=C\c3ccncc3)C2=O)cc1

>  <IC50, nM>
50

$$$$
>  <compound>
O=C1N/C(=C\c2ccncc2)C(=O)N1C1CCC(O)CC1 (stereo not shown)

>  <IC50, nM>
214

$$$$
>  <compound>
O=C(O)c1cccc(N2C(=O)N/C(=C\c3ccncc3)C2=O)c1

>  <IC50, nM>
56

$$$$
>  <compound>
O=C1N/C(=C\c2ccncc2)C(=O)N1CCCN1CCOCC1

>  <IC50, nM>
151

$$$$
>  <compound>
CSc1ccc(N2C(=O)N/C(=C\c3ccncc3)C2=O)cc1

>  <IC50, nM>
70

$$$$
>  <compound>
CC(C)(O)CCN1C(=O)N/C(=C\c2ccncc2)C1=O

>  <IC50, nM>
20

$$$$
>  <compound>
O=C1N/C(=C\c2ccncc2)C(=O)N1CC(F)(F)F

>  <IC50, nM>
57

$$$$

(I) O=C(O)c1ccc(N2C(=O)N/C(=C\c3ccncc3)C2=O)cc1
(II) CC1CCN(C(=O)c2ccc(N3C(=O)N/C(=C\c4ccncc4)C3=O)cc2)CC1
(III) O=C1N/C(=C\c2ccncc2)C(=O)N1Cc1ccccc1
Enquiry: Ascending by IC50, please. Please reply with the labels ordered as requested. Many thanks.
Return: III, II, I
(III: 50 nM, II: 74 nM, I: 110 nM)

(1) O=C(O)CN1C(=O)N/C(=C\c2ccncc2)C1=O
(2) O=C1N/C(=C\c2ccncc2)C(=O)N1CCN1CCCC1
Enquiry: Param pair: 1 , 2 . Output: the one whose IC50 is numerically greater. To answer, give the label that identifies your chosen option.
Return: 1

(P) O=C1N/C(=C\c2ccncc2)C(=O)N1CC1(CO)CCCC1
(Q) C[C@@H]1CN(C(=O)c2ccc(N3C(=O)N/C(=C\c4ccncc4)C3=O)cc2)C[C@H](C)O1
Enquiry: Field: lower IC50 | Options: P / Q Use the label to indicate which entry you chose.
Return: P
(P: 16 nM, Q: 34 nM)

(A) O=C1N/C(=C\c2ccncc2)C(=O)N1C1CCCCC1
(B) O=C1N/C(=C\c2ccncc2)C(=O)N1C1CC(F)(F)C1
Enquiry: Input pair: A , B . Output: entry with lower IC50. Write down the label of the entry you select.
Return: B
